Data origin, for the record: patent US5231107A

Quick reference: ED50 of the listed items.
# Assay Info: in vivo
# Parameters: species or system male mice (CD1 Charles Rivers)
# Assay Context: mouse, in vivo; oral route; male CD1 mice; method of Miller and Tainter; read-out: DE50 (dose which causes diarrhoea in 50% of the animals)
Property Label: ED50

> print(dat)
                                given.smiles  recorded.measurement
 1  CON=CC1=CCCN(C(=O)Oc2ccc(C(C)(C)CC(C)(C)C)cc2)C1            > 50 mg/kg
 2                C=CCOC(=O)N1CCC=C(C=NOC)C1               3 mg/kg
 3    CON=CC1=CCCN(C(=O)Oc2ccc(OC)c(OC)c2)C1            > 50 mg/kg
 4        CON=CC1=CCCN(C(=O)Oc2ccc(Br)cc2)C1            > 50 mg/kg
 5         CON=CC1=CCCN(C(=O)Oc2ccc(F)cc2)C1            > 50 mg/kg
 6     CON=CC1=CCCN(C(=O)Oc2ccc(C(C)C)cc2)C1            > 50 mg/kg
 7         CON=CC1=CCCN(C(=O)Oc2ccc(C)cc2)C1            > 50 mg/kg
 8                  CCOC(=O)N1CCC=C(C=NOC)C1              25 mg/kg
 9            CON=CC1=CCCN(C(=O)Oc2ccccc2)C1             100 mg/kg
10        CON=CC1=CCCN(C(=O)Oc2ccc(Cl)cc2)C1            > 50 mg/kg
